B1: BTBD1 (parent)
chain: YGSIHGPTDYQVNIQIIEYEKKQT

Variants of: B1
Assay: protein stability index of a GFP-peptide fusion (GPS, HEK-293T) (PSI 1-6); higher = more stable;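 also: lentivirally expressed fusions sorted by FACS into six bins by GFP to DsRed ratio, PSI derived from sequencing read proportions per bin multiplied by bin number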
Conditions: c terminus: a fixed tail appended

MUTATION CODE | protein stability index
K21N | 2.32
E18M | 2.44
K22A | 2.18
D9R | 2.65
T8P | 2.97
T8N | 2.94
D9K | 1.82
Q15M | 1.96
D9E | 1.95
I14F | 2.92
T8V | 2.06
I17H | 3.22
Y1A | 3.35
V12D | 4.04
P7R | 1.75
Q15C | 1.43
Y10G | 3.79
T8Q | 3.08
S3M | 2.87
E18G | 2.24
